Here, each record is paired with measured Kp data.
Assay: Ratio of AUC/dose in brain to plasma of C57BL/6J mouse at 3 mg/kg, iv administered as single dose by LC-MS/MS analysis
Format: ADME, organism-based
Conditions: brain and plasma, read-out: BPR
quantity.name: Kp

compound_string=COc1ccc2c(c1)C1(CCOCC1)c1cccc(-c3cc(=O)cc(N4CCOCC4)o3)c1S2 quantity_name=Kp readout_number=0.5
compound_string=O=c1cc(-c2cccc3c2Sc2ccc(OC4COC4)cc2C3)oc(N2CCOCC2)c1 quantity_name=Kp readout_number=0.2
compound_string=O=c1cc(-c2cccc3c2Sc2ccc(O[C@@H]4CCN(CC(F)F)C4)cc2C3)oc(N2CCOCC2)c1 quantity_name=Kp readout_number=0.2
compound_string=C[C@H](CN1C[C@@H](C)O[C@@H](C)C1)Oc1ccc2c(c1)Cc1cccc(-c3cc(=O)cc(N4CCOCC4)o3)c1S2 quantity_name=Kp readout_number=0.1
compound_string=COC[C@@H](C)Oc1ccc2c(c1)Cc1cccc(-c3cc(=O)cc(N4CCOCC4)o3)c1S2 quantity_name=Kp readout_number=0.4
compound_string=CC(C)(O)C1CCN(CCOc2ccc3c(c2)Cc2cccc(-c4cc(=O)cc(N5CCOCC5)o4)c2S3)CC1 quantity_name=Kp readout_number=0.1
compound_string=COc1ccc2c(c1)Cc1cccc(-c3cc(=O)cc(N4CCOCC4)o3)c1S2 quantity_name=Kp readout_number=1.3
compound_string=COC[C@H]1c2cc(OC)ccc2Sc2c(-c3cc(=O)cc(N4CCOCC4)o3)cccc21 quantity_name=Kp readout_number=0.4

###

Experiment: Ratio of AUC/dose in brain to plasma of C57BL/6J mouse at 10 mg/kg, po administered as single dose by LC-MS/MS analysis
Type: ADME, organism-based
Conditions: brain and plasma, read-out: BPR
quantity.name: Kp

compound_string=COc1ccc2c(c1)Cc1cccc(-c3cc(=O)cc(N4CCOCC4)o3)c1S2 readout_number=1.3

###

Test: Distribution coefficient, logD of compound at pH 7.4
Format: physicochemical
Details: octanol/water
quantity.name: logD

compound_string=C[C@@H]1CN(CC(=O)Nc2ccc3c(c2)Cc2cccc(-c4cc(=O)cc(N5CCOCC5)o4)c2S3)C[C@H](C)O1 readout_number=4.5

###

Experiment: Oral bioavailability in C57BL/6J mouse plasma at 100 mg/kg by LC-MS/MS analysis
Type: ADME, organism-based
quantity.name: bioavailability

compound_string=COc1ccc2c(c1)Cc1cccc(-c3cc(=O)cc(N4CCOCC4)o3)c1S2 quantity_name=bioavailability result=67%

###

Test: Tmax in C57BL/6J mouse plasma at 100 mg/kg, po by LC-MS/MS analysis
Format: ADME, organism-based
quantity.name: Tmax (min)

compound_string=COc1ccc2c(c1)Cc1cccc(-c3cc(=O)cc(N4CCOCC4)o3)c1S2 quantity_name=Tmax readout_number=15

###

The compounds listed here are annotated with their solubility kinetic.
Assay: Kinetic solubility in pH 7.4 PBS buffer by LC-UV assay
Format: physicochemical
Conditions: read-out: Kinetic_solubility
quantity.name: solubility kinetic

compound_string=C[C@@H](CN1CCOCC12COC2)Oc1ccc2c(c1)Cc1cccc(-c3cc(=O)cc(N4CCOCC4)o3)c1S2 quantity_name="solubility kinetic" result="29 µg/mL"
compound_string=C[C@H](CN1C[C@@H](C)O[C@@H](C)C1)Oc1ccc2c(c1)Cc1cccc(-c3cc(=O)cc(N4CCOCC4)o3)c1S2 quantity_name="solubility kinetic" result="30 µg/mL"
compound_string=O=c1cc(-c2cccc3c2Sc2ccc(OC4COC4)cc2C3)oc(N2CCOCC2)c1 quantity_name="solubility kinetic" result="25 µg/mL"
compound_string=C[C@@H]1CN([C@H](C)COc2ccc3c(c2)Cc2cccc(-c4cc(=O)cc(N5CCOCC5)o4)c2S3)C[C@H](C)O1 quantity_name="solubility kinetic" result="24 µg/mL"
compound_string=O=c1cc(-c2cccc3c2Sc2ccc(OC4CCOCC4)cc2C3)oc(N2CCOCC2)c1 quantity_name="solubility kinetic" result="10 µg/mL"
compound_string=C[C@@H]1CN(CCOc2ccc3c(c2)Cc2cccc(-c4cc(=O)cc(N5CCOCC5)o4)c2S3)C[C@H](C)O1 quantity_name="solubility kinetic" result="42.5 µg/mL"
compound_string=C[C@@H]1CN(CC(=O)Nc2ccc3c(c2)Cc2cccc(-c4cc(=O)cc(N5CCOCC5)o4)c2S3)C[C@H](C)O1 quantity_name="solubility kinetic" result="46 µg/mL"
compound_string=COC[C@@H](C)Oc1ccc2c(c1)Cc1cccc(-c3cc(=O)cc(N4CCOCC4)o3)c1S2 quantity_name="solubility kinetic" result="22 µg/mL"
compound_string=C[C@H](COc1ccc2c(c1)Cc1cccc(-c3cc(=O)cc(N4CCOCC4)o3)c1S2)N1CCOCC1 quantity_name="solubility kinetic" result="13 µg/mL"
compound_string=O=c1cc(-c2cccc3c2Sc2ccc(OCC4CCOCC4)cc2C3)oc(N2CCOCC2)c1 quantity_name="solubility kinetic" result="< 2 µg/mL"
compound_string=C[C@@H](CN1CCOCC1)Oc1ccc2c(c1)Cc1cccc(-c3cc(=O)cc(N4CCOCC4)o3)c1S2 quantity_name="solubility kinetic" result="56 µg/mL"
compound_string=COc1ccc2c(c1)C1(CCOCC1)c1cccc(-c3cc(=O)cc(N4CCOCC4)o3)c1S2 quantity_name="solubility kinetic" result="33 µg/mL"
compound_string=C[C@@H](CN1CCOC2(CC2)C1)Oc1ccc2c(c1)Cc1cccc(-c3cc(=O)cc(N4CCOCC4)o3)c1S2 quantity_name="solubility kinetic" result="26 µg/mL"
compound_string=COC[C@H]1c2cc(OC)ccc2Sc2c(-c3cc(=O)cc(N4CCOCC4)o3)cccc21 quantity_name="solubility kinetic" result="67 µg/mL"

Data credit: ChEMBL document CHEMBL4680114
